- system.tested: BtsS (Escherichia coli, UniProt P0AD14, C110A)
- Construct: BtsS-C110A-6His in membrane vesicles of E. coli MG1655 ΔbtsSRΔypdABC
- Sequence (P0AD14 whole entry C110A): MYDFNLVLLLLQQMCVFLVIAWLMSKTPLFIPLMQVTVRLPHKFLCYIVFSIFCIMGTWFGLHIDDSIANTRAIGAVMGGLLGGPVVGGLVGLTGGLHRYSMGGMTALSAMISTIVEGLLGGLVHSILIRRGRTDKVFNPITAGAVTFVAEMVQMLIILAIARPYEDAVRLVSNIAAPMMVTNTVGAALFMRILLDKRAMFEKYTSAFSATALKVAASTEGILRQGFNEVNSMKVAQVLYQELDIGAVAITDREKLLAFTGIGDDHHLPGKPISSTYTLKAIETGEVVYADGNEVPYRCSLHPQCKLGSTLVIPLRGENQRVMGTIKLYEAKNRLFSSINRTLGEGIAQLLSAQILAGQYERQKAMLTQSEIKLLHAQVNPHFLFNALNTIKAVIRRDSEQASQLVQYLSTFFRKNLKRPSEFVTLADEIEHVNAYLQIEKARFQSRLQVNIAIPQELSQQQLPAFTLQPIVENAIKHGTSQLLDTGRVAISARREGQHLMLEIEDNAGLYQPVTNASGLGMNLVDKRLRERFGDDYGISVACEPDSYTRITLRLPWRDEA
- test.details: DRaCALA with […]-pyruvate and competition with cold pyruvate, membrane vesicles
readout.type: Kd (µM)

- CC(=O)C(=O)O [pyruvate]: 375

###

- system.tested: BtsS (Escherichia coli, UniProt P0AD14, R72A)
- Construct: BtsS-R72A-6His in membrane vesicles of E. coli MG1655 ΔbtsSRΔypdABC
- Sequence (P0AD14 whole entry R72A): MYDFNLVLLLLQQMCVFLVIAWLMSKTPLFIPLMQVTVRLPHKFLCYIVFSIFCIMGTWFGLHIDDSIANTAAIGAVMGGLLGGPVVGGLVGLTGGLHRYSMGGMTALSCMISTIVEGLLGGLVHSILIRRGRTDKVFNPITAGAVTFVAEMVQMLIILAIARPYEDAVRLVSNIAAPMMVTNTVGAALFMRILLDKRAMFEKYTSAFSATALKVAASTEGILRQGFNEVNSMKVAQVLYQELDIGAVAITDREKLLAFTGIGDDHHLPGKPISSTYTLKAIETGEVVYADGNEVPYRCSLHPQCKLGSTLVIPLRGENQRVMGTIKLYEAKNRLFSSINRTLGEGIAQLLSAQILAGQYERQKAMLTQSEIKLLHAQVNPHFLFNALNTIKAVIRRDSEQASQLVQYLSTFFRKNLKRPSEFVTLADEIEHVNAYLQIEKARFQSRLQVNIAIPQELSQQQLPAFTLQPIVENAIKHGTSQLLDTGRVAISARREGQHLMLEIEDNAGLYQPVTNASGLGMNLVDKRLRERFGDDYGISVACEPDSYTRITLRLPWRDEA
- test.details: DRaCALA with […]-pyruvate and competition with cold pyruvate, membrane vesicles
readout.type: Kd

• CC(=O)C(=O)O [pyruvate] = 107 µM
